# study target: Serine/threonine-protein kinase PLK2 (Homo sapiens)
# experimental details: Inhibition of PLK2 at 1 uM
Collected inhibition values appear next to each entry.

| chemical smiles | inhibition |
| --- | --- |
| CN1CCN(c2ccc(-c3cnc4c(c3)N(Cc3c(F)ccc(F)c3Cl)CCN4)cn2)CC1 | < 50% |
| CN1CCN(c2ccc(-c3cnc4c(c3)N(Cc3cc(F)ccc3F)CCN4)cn2)CC1 | < 50% |
| CN1CCN(c2ccc(-c3cnc4c(c3)N(Cc3cc(Cl)ccc3Cl)CCN4)cn2)CC1 | < 50% |
| FC(F)(F)c1ccc(Cl)cc1CN1CCNc2ncc(-c3ccnc(N4CCNCC4)c3)cc21 | < 50% |
| CN1CCN(c2ccc(-c3cnc4c(c3)N(Cc3cc(Cl)ccc3C(F)(F)F)CCN4)cn2)CC1 | < 50% |

Exercise: Field request: inhibition | item: `CC(=O)N1CCN(c2cc(-c3cnc4c(c3)N(Cc3cc(Cl)ccc3C(F)(F)F)CCN4)ccn2)CC1`
Key: 82%
